Target: WD40 repeat protein 5 (WDR5), human (human, UniProt P61964 1-334)
Assay: SPR
A collection of binders and their measured koff
Kindly answer with a numeric value in s⁻¹, unit omitted.

> print(dat)
                                     binder  numeric.result
1  {sulforhodamine B}-GGSGGSGGSINPTGCARSEPKIL-NH2 [Sulforhodamine B-(GGS)3MLL2Win-NH2]           0.012

Record {sulforhodamine B}-GGSGGSGGSEHQTGSARSEGYYP-NH2 [Sulforhodamine B-(GGS)3SETd1AWin-NH2] , field koff: 0.11

Record {sulforhodamine B}-GGSGGSGGSLNPHGAARAEVYLS-NH2 [Sulforhodamine B-(GGS)3MLL4Win-NH2] , field koff: 0.041

Record {sulforhodamine B}-GGSGGSGGSVNPTGCARSEPKMS-NH2 [Sulforhodamine B-(GGS)3MLL3Win-NH2] , field koff: 0.009

Record {sulforhodamine B}-GGSGGSGGSEHVTGCARSEGFYT-NH2 [Sulforhodamine B-(GGS)3SETd1BWin-NH2] , field koff: 0.024

From: paper PMC8214142
